Target: Dihydrofolate reductase (Rattus norvegicus, UniProt Q920D2)
Sequence (Q920D2 whole entry): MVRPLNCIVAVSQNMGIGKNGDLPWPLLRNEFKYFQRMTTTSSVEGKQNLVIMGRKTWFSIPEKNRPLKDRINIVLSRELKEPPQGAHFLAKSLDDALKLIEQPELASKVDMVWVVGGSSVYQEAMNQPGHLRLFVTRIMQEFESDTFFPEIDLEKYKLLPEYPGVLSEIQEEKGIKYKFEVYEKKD
Under this convention, Y denotes IC50 strictly below 10 µM and N denotes IC50 at or above 10 µM.

>>> df
                                   compound  group_label
0  CC1(C)N=C(N)N=C(N)N1c1ccc(OCC(O)CN2C(=O)c3ccccc3C2=O)cc1 (centres undefined)            Y
1     COc1cccc(COc2ccc(NC(=N)NC(=N)N)cc2)c1            N
2  NC(N)=N/C(N)=N/c1ccc(OCc2ccc(Cl)cc2Cl)cc1            N
3  CC1(C)N=C(N)N=C(N)N1c1ccc(OCc2ccc(Cl)cc2Cl)cc1            Y
4  CC1(C)N=C(N)N=C(N)N1c1ccc(OCc2ccccc2)cc1            Y
5  NC(N)=N/C(N)=N/c1ccc(OCc2ccc(-c3ccccc3)cc2)cc1            N
6  CC1(C)N=C(N)N=C(N)N1c1ccc(OCCCCN2C(=O)c3ccccc3C2=O)cc1            Y
7       N=C(N)NC(=N)Nc1ccc(OCc2ccccc2Cl)cc1            N
8  N=C(N)NC(=N)Nc1ccc(OCCN2C(=O)c3ccccc3C2=O)cc1            N
